Test: in vitro
Details: C57BL/6J, mouse, mouse tail fibroblast (MTF) cells
Each entry below carries its recorded viability at 3 h, 10 µM.
API: value field is a number in %; no unit string.

{"columns": ["Substance", "Units Symbol", "Measured Number"],
 "data": [
  ["H-KHKHKHKHKHKHKHKHKHKHKHKHKHKHKH-NH2 [PN935, NH2-(Lys-His)15-amide]", "%", 97.3],
  ["H-KHKHKHKHKHKHKHKHKHKH-NH2 [PN938, NH2-(Lys-His)10-amide]", "%", 98.6],
  ["H-KETWWETWWTEWSQPGRKKRRQRRRPPQ-NH2 [PN183, reference compound]", "%", 96.8]
]}

Now for another entry.
Given the substance H-KKKKKKKKKK-NH2 [PN932, NH2-(Lys)10-amide] , write its reported viability at 3 h, 10 µM.
96.7
